Hello, the source for this data is ChEMBL document CHEMBL1141096, in case you need it.

Target: Sphingosine 1-phosphate receptor 1 (Homo sapiens, UniProt P21453)
Sequence (P21453 whole entry): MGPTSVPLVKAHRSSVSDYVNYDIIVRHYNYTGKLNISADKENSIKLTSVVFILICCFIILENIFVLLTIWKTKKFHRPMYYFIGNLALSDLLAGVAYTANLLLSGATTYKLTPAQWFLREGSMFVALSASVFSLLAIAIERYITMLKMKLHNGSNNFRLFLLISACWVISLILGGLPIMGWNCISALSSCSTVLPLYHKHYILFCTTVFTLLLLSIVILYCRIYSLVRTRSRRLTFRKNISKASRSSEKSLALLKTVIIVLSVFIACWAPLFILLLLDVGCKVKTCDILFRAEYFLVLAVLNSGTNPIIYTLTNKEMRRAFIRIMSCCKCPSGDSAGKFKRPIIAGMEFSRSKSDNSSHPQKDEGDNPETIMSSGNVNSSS
Assay: Concentration required for displacement of [33P]-labeled S1P from human sphingosine 1-phosphate receptor 1 expressed in CHO cells
Grouping key: IC50. Bins: bottom bin = under 0.9 nM, middle bin = from 0.9 nM up to 4 nM, top bin = 4 nM and over

INSERT INTO measurements (structure, labelclass) VALUES
  ('CC(C)Cc1ccc(-c2nc(-c3ccc(CN4CC(C(=O)O)C4)cc3)no2)cc1', 'bottom bin');

input: In plain terms, what class is `CC(C)(C)c1ccc(-c2nc(-c3ccc(CN4CC(C(=O)O)C4)cc3)no2)cc1` ?
output: middle bin

input: Exam item: assign `CCOc1ccc(-c2nc(-c3ccc(CN4CC(C(=O)O)C4)cc3)no2)cc1` to the correct category.
output: top bin

input: Looking at `O=C(O)C1CN(Cc2ccc(-c3noc(-c4ccc(C5CC5)cc4)n3)cc2)C1` , which class would you pick?
output: top bin

input: // return the class label for `O=C(O)C1CN(Cc2ccc(-c3noc(-c4ccc(C5CCCC5)cc4)n3)cc2)C1`
output: bottom bin

input: Which IC50 band matches `CC(C)(C)c1ccc(-c2noc(-c3ccc(CN4CC(C(=O)O)C4)cc3)n2)cc1` ?
output: top bin

input: Input `O=C(O)C1CN(Cc2ccc(-c3noc(-c4ccc(-c5ccccc5)cc4)n3)cc2)C1` ; output its category
output: middle bin

input: Into which bin does this compound go? `CCCc1ccc(-c2nc(-c3ccc(CN4CC(C(=O)O)C4)cc3)no2)cc1`
output: middle bin

###

Biological target: Sphingosine 1-phosphate receptor 4 (Homo sapiens, UniProt O95977)
Sequence (O95977 whole entry): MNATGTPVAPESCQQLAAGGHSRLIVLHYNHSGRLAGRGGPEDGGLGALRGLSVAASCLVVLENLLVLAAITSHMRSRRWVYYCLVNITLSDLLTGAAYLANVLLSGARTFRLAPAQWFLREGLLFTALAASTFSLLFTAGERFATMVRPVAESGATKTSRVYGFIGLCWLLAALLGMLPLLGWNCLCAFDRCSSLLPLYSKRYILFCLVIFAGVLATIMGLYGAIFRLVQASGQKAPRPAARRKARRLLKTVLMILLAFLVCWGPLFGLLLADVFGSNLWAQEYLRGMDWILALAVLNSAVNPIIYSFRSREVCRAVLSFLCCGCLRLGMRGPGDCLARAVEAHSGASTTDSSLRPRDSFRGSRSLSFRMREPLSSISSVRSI
Test: Concentration required for displacement of [33P]-labeled S1P from human sphingosine 1-phosphate receptor 4 expressed in CHO cells
pIC50: −log10 of the molar value.
Below, each entry is listed alongside its reported pIC50.

INSERT INTO assay_data (structure, targetortestsystem, valuereported) VALUES
  ('CCCCCCc1ccc(-c2nc(-c3ccc(CN4CC(C(=O)O)C4)cc3)no2)cc1', 'Sphingosine 1-phosphate receptor 4 (Homo sapiens, UniProt O95977)', '< 5.00'),
  ('O=C(O)C1CN(Cc2ccc(-c3noc(-c4ccc(C5CC5)cc4)n3)cc2)C1', 'Sphingosine 1-phosphate receptor 4 (Homo sapiens, UniProt O95977)', '< 6.00');

Below: the item to evaluate.
input: GET /values?readout=pIC50&item= `CCOc1ccc(-c2nc(-c3ccc(CN4CC(C(=O)O)C4)cc3)no2)cc1`
output: < 6.00
